The measurements presented in this section are drawn from paper PMC5540273.

- Test system: MAP4K3;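 note: KINOMEscan kinase panel screen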
- TEST_CONDITIONS: concentration: 1 μM,replicates: in singlicate; n = 1
Listing: %Inh of selected compounds
Unit % implied. Number only.

{"COMPOUND": "CC(=O)Nc1nc2cnc(Nc3cc(NC(=O)c4cccc(CC(C)(C)C#N)c4)ccc3C)nc2s1", "UNIT_LABEL": "%", "%Inh": 0}
{"COMPOUND": "Cc1ccc2c(-c3ccnc(Nc4ccc(C(F)(F)F)cc4)n3)cnn2n1 [GW819776]", "UNIT_LABEL": "%", "%Inh": 0}
{"COMPOUND": "Cc1ccc(Nc2ccnc(Nc3ccc4c(c3)CS(=O)(=O)C4)n2)cc1O.Cl [GW579362]", "UNIT_LABEL": "%", "%Inh": 0}
{"COMPOUND": "O=C(NOCC1CC1)c1cc(Br)c(F)c(F)c1Nc1ccc(I)cc1Cl", "UNIT_LABEL": "%", "%Inh": 0}
{"COMPOUND": "CS(=O)(=O)c1cccc(CNc2nc(Nc3ccc4c(c3)[C@@H]3C[C@@H]4CNC3=O)ncc2C(F)(F)F)c1", "UNIT_LABEL": "%", "%Inh": 68}
{"COMPOUND": "C[C@@H]1CCN(C(=O)N2CCCC2)C[C@@H]1N(C)c1ncnc2[nH]ccc12", "UNIT_LABEL": "%", "%Inh": 8}

Just so you know, measured %Inh for CSc1nccc(-c2c(-c3ccc(F)cc3)ncn2CCCN2CCOCC2)n1.Cl [SB-217146] came out at 0

Just so you know, measured %Inh for COc1cc2ncn(-c3cc(OCC4CCCCC4)c(C(N)=O)s3)c2cc1OC [GSK204559] came out at 0

Just so you know, measured %Inh for C[C@@H](Oc1cc(-n2cnc3cc(-c4cnn(C)c4)ccc32)sc1C(N)=O)c1ccccc1Cl [GSK580432] came out at 93.8

Just so you know, measured %Inh for CS(=O)(=O)Nc1ccc(-c2ccnc3[nH]ccc23)cc1 [GSK993273] came out at 44

Just so you know, measured %Inh for FC(F)(F)c1cc(Br)cc(Nc2nccc(-c3cnn4ncccc34)n2)c1 [GW810578] came out at 7

Just so you know, measured %Inh for CN(c1ccc2c(c1)nc(NCc1ccc(F)cc1)n2C)c1ccnc(Nc2ccc(CS(C)(=O)=O)cc2)n1.Cl [GW813244] came out at 40

Just so you know, measured %Inh for "Cn1ccc2ncnc(Oc3ccc(NC(=O)Nc4cccc(C(F)(F)F)c4)c(Cl)c3)c21" came out at 0

Just so you know, measured %Inh for O=C(Nc1n[nH]c2cc(-c3ccco3)ccc12)C1CC1 [SB-737447] came out at 5

Just so you know, measured %Inh for CC(C)S(=O)(=O)N1CCN(Cc2ccc3c(c2)nc(NC(=O)c2ccsc2)n3C[C@H](O)c2ccccc2)CC1 [GW635815] came out at 0

Just so you know, measured %Inh for CCCC(=O)Nc1n[nH]c2ncccc12 [SB-601436] came out at 0

Just so you know, measured %Inh for CS(=O)c1ccc(-c2coc3ccc(-c4n[nH]c(=O)o4)cc23)cc1 (centres unmarked) came out at 1

Just so you know, measured %Inh for "CN(c1ccccc1CNc1nc(Nc2ccc3c(c2)CC(=O)N3)ncc1C(F)(F)F)S(C)(=O)=O" came out at 42

Just so you know, measured %Inh for COC(=O)c1cccc(NC(=O)NC2CCN(c3ccnc(NCc4ccc(F)cc4)n3)CC2)c1 [GSK1379860] came out at 0

Just so you know, measured %Inh for "NC(=O)c1ccc(-c2cc3ncnc(SCC(=O)O)c3s2)cc1" came out at 0

Just so you know, measured %Inh for "C[C@@H]1CNc2c(sc3ccc4nc(-c5ccncc5)ccc4c23)C(=O)N1" came out at 1

Just so you know, measured %Inh for COc1cc2nccc(Nc3ccc(Oc4ccccc4)cc3)c2cc1OC.Cl [GI261656] came out at 0

Just so you know, measured %Inh for c1ccc(Oc2ccc(Nc3ccnc4ccc(-c5ccccn5)cc34)cc2)cc1 [GW407034] came out at 11

Just so you know, measured %Inh for CCN1CCN(CCCC(=O)Nc2n[nH]c3nc(-c4ccc(O)cc4)c(Br)cc23)CC1 [SB-731579] came out at 0

Just so you know, measured %Inh for Cc1n[nH]c2cc(Nc3ccnc(Nc4cccc(CN5CCOCC5)c4)n3)ccc12 [GW682569] came out at 0

Just so you know, measured %Inh for Cc1cccc2c(-c3ccncc3)c(-c3ccc(F)cc3)nn12.Cl [GW461487] came out at 0

Just so you know, measured %Inh for COc1cc(Nc2nccc(N3CCC(NC(=O)c4cccc(C#N)c4)C3)n2)cc(OC)c1OC (centres unmarked) [GSK1379751] came out at 0

Just so you know, measured %Inh for COC(=O)c1cccc(NC(=O)NC2CCN(c3ccnc(Nc4cc(OC)c(OC)c(OC)c4)n3)C2)c1 (centres unmarked) [GSK1379767] came out at 3

Just so you know, measured %Inh for C[C@@H](Oc1cc(-n2cnc3ccc(-c4ccncc4)cc32)sc1C(N)=O)c1ccccc1Cl [GSK483724] came out at 10

Just so you know, measured %Inh for Nc1nccc(-c2ccc3c(N)n[nH]c3c2)n1 [GSK1034945] came out at 4

Just so you know, measured %Inh for Cl.c1ccc(Oc2ccc(Nc3ccnc4cc(-c5ccc(CN6CCNCC6)o5)ccc34)cc2)nc1 [GW567142] came out at 0

Just so you know, measured %Inh for NC(=O)Nc1sc(-c2ccc(F)cc2)cc1C(N)=O [GW789449] came out at 0
